- system_under_test: Macrophage migration inhibitory factor homologue (Plasmodium falciparum (isolate 3D7))
- Sequence (Q8I5C5 whole entry): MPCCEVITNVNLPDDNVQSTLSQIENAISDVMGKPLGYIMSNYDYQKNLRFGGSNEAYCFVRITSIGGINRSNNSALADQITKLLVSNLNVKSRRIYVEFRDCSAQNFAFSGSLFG
- assay_text: Inhibition of recombinant Plasmodium falciparum MIF expressed in Escherichia coli BL21 (DE3) assessed as ketonization of enol form of 4-HPP substrate after 10 mins
- stated_conditions: read-out: Ki
pKi: −log10 of the molar value.
property_measured: pKi

1. COc1cccc(Oc2ccc(-c3cccc(OC)c3)nc2)c1    4.24
2. COc1cc(C)cc(Oc2cc(C)nc(N3CCOCC3)c2)c1    5.92
3. COc1cc(C)cc(Oc2ccnc(N3CCOCC3)c2)c1    5.25
4. COc1ccc(-c2cc(Oc3cc(C)cc(OC)c3)cc(C)n2)cc1    7.42
5. Oc1cccc(Oc2ccnc(N3CCOCC3)c2)c1    4.36
